Answer each item with its documented pIC50.
tested on: 186277-243-T-J2-PDC complex spheroid viability; assay: Anticancer human tumor 186277-243-T-J2-PDC patient-derived colon adenocarcinoma cell line growth inhibition; conditions: curve of first compound; second compound 10 µM;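 note: 7 day exposure to compounds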
Conceptually, pIC50 converts a concentration in mol/L into minus its log10.

Task: Recall and state the measured pIC50 for Nc1ccn(C2OC(CO)C(O)C2(F)F)c(=O)n1 (centres undefined) + NC1CC1c1ccc(-c2cccc(O)c2)cc1 .
Output: 8.63

Task: Using known records, supply pIC50 for CC1COCCN1c1cc(C2(S(C)(=N)=O)CC2)nc(-c2ccnc3[nH]ccc23)n1 (centres undefined) + NC1CC1c1ccc(-c2cccc(O)c2)cc1
Output: 6.06

Task: Output pIC50 of CC[C@@]1(O)C(=O)OCc2c1cc1n(c2=O)Cc2cc3c(CN(C)C)c(O)ccc3nc2-1 + NC1CC1c1ccc(-c2cccc(O)c2)cc1
Output: 7.25

Task: Dear colleague, please send me the reported pIC50 for Nc1ncn(C2CC(O)C(CO)S2)c(=O)n1 (centres undefined) + NC1CCC(NC2CC2c2ccccc2)CC1 when you can.
Output: 7.05

Task: Name the recorded pIC50 of the compound listed here: O=C(C=Cn1cnc(-c2cc(C(F)(F)F)cc(C(F)(F)F)c2)n1)NNc1cnccn1 + NC1CC1c1ccc(-c2cccc(O)c2)cc1
Output: 7.28

Task: Let me know recorded pIC50 for CC(C)CC(NC(=O)CNC(=O)c1cc(Cl)ccc1Cl)B1OC(=O)CC(CC(=O)O)(C(=O)O)O1 (centres undefined) + NC1CC1c1ccc(-c2cccc(O)c2)cc1 , thanks.
Output: 8.11

Task: // fetch pIC50 given entry CC(C)CC(NC(=O)C(Cc1ccccc1)NC(=O)c1cnccn1)B(O)O (centres undefined) + NC1CC1c1ccc(-c2cccc(O)c2)cc1
Output: 9.25

Task: Complete the entry with pIC50 for NS(=O)(=O)OCC1CC(n2ccc3c(NC4CCc5ccccc54)ncnc32)CC1O (centres undefined) + NC1CCC(NC2CC2c2ccccc2)CC1
Output: 6.04

Task: # return recorded pIC50 for entry CC1COCCN1c1cc(-c2ccnn2C)c2ccnc(-c3ccn[nH]3)c2n1 (centres undefined) + NC1CCC(NC2CC2c2ccccc2)CC1
Output: 8.23

Task: # return recorded pIC50 for input CC1(C)CCC(CN2CCN(c3ccc(C(=O)NS(=O)(=O)c4ccc(NCC5CCOCC5)c([N+](=O)[O-])c4)c(Oc4cnc5[nH]ccc5c4)c3)CC2)=C(c2ccc(Cl)cc2)C1 + NC1CC1c1ccc(-c2cccc(O)c2)cc1
Output: 5.67

Task: Input O=C(C=Cc1cccc(S(=O)(=O)Nc2ccccc2)c1)NO + NC1CC1c1ccc(-c2cccc(O)c2)cc1 , output reported pIC50.
Output: 6.62

Task: Provide only the value of recorded pIC50 for O=C(C=Cc1cccc(S(=O)(=O)Nc2ccccc2)c1)NO + NC1CCC(NC2CC2c2ccccc2)CC1
Output: 6.55

Task: State, in one line, measured pIC50 of CC(C)CC(NC(=O)C(Cc1ccccc1)NC(=O)c1cnccn1)B(O)O (centres undefined) + NC1CCC(NC2CC2c2ccccc2)CC1
Output: 8.40

Task: Given Nc1ccccc1NC(=O)c1ccc(CNC(=O)OCc2cccnc2)cc1 + NC1CCC(NC2CC2c2ccccc2)CC1 , respond with its pIC50.
Output: 5.86

Task: Entry COc1cc(C2c3cc4c(cc3C(OC3OC5COC(C)OC5C(O)C3O)C3COC(=O)C23)OCO4)cc(OC)c1O (centres undefined) + NC1CC1c1ccc(-c2cccc(O)c2)cc1 needs its pIC50 filled in; supply it.
Output: 6.34

Task: Specify pIC50 for COc1cc(Nc2ncc3c(n2)-c2ccc(Cl)cc2C(c2c(F)cccc2OC)=NC3)ccc1C(=O)O + NC1CCC(NC2CC2c2ccccc2)CC1 and stop.
Output: 7.86

Task: Name the recorded pIC50 of the compound listed here: Nc1ncn(C2CC(O)C(CO)S2)c(=O)n1 (centres undefined) + NC1CC1c1ccc(-c2cccc(O)c2)cc1
Output: 7.10

Task: Complete the entry with pIC50 for COc1ccc([C@@H](O)c2cc(-c3ncnc4cc(N5CCOCC5)ccc34)c(F)cc2Cl)nn1 + NC1CCC(NC2CC2c2ccccc2)CC1
Output: 5.41

Task: Consider the compound CCN(c1cc(-c2ccc(CN3CCOCC3)cc2)cc(C(=O)NCc2c(C)cc(C)[nH]c2=O)c1C)C1CCOCC1 + NC1CC1c1ccc(-c2cccc(O)c2)cc1 and give its recorded pIC50.
Output: 5.70
